Listed here: items and their measured MC3R selectivity (relative to MC4R).
- Test target: human MC3R (human, UniProt P41968 1-323)
- Sequence (P41968 whole entry): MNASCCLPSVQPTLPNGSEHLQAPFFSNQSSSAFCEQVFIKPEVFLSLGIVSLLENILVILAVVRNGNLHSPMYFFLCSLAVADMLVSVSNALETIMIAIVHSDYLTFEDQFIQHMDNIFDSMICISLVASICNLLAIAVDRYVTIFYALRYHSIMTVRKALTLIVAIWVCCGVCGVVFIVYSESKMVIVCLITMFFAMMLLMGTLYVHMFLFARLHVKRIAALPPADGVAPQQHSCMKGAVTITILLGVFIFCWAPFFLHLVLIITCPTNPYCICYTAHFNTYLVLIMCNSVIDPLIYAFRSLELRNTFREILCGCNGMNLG
- Experiment notes: cell-based or functional assay
Non-standard residues stand in square brackets, D forms with d. PKcap2 = N-terminal cap Aryl(4-I)-Gly-mPEG2; Phe(4-I) = N[C@@H](Cc1ccc(I)cc1)C(=O)O; Nle = CCCC[C@H](N)C(=O)O
Answer field: number only, no words.

Some binders with recorded MC3R selectivity (relative to MC4R):
Ac-[Nle][dA]R[Phe(4-I)]R[dW]DRFG-OH (SMILES CCCC[C@H](NC(C)=O)C(=O)N[C@H](C)C(=O)N[C@@H](CCCNC(=N)N)C(=O)N[C@@H](Cc1ccc(I)cc1)C(=O)N[C@@H](CCCNC(=N)N)C(=O)N[C@H](Cc1c[nH]c2ccccc12)C(=O)N[C@@H](CC(=O)O)C(=O)N[C@@H](CCCNC(=N)N)C(=O)N[C@@H](Cc1ccccc1)C(=O)NCC(=O)O) [CTX-1197] = 250
Ac-TGH[dF]R[dW]D-NH2 (SMILES CC(=O)N[C@H](C(=O)NCC(=O)N[C@@H](Cc1c[nH]cn1)C(=O)N[C@H](Cc1ccccc1)C(=O)N[C@@H](CCCNC(=N)N)C(=O)N[C@H](Cc1c[nH]c2ccccc12)C(=O)N[C@@H](CC(=O)O)C(N)=O)[C@@H](C)O) [CTX-1113] = 0.4
Ac-[Nle][dA]HFR[dW]D-NH2 (SMILES CCCC[C@H](NC(C)=O)C(=O)N[C@H](C)C(=O)N[C@@H](Cc1c[nH]cn1)C(=O)N[C@@H](Cc1ccccc1)C(=O)N[C@@H](CCCNC(=N)N)C(=O)N[C@H](Cc1c[nH]c2ccccc12)C(=O)N[C@@H](CC(=O)O)C(N)=O) [CTX-1123] = 28
PKcap2-G[Nle][dA]HFR[dW]DR[dF]G-OH [CTX-1154] = 1070
Ac-[Nle][dA]HFR[dW]DKFG-OH (SMILES CCCC[C@H](NC(C)=O)C(=O)N[C@H](C)C(=O)N[C@@H](Cc1c[nH]cn1)C(=O)N[C@@H](Cc1ccccc1)C(=O)N[C@@H](CCCNC(=N)N)C(=O)N[C@H](Cc1c[nH]c2ccccc12)C(=O)N[C@@H](CC(=O)O)C(=O)N[C@@H](CCCCN)C(=O)N[C@@H](Cc1ccccc1)C(=O)NCC(=O)O) [CTX-1535] = 1590
PKcap2-G[dY]V[Nle][dA]HFR[dW]D[dR]FG-OH [CTX-1156] = 86

Shifting focus to the binder that follows.
Entry YVXAHFRWDRFG (Nle at 3; D-Ala at 4; Phe(4-Br) at 6; D-Trp at 8) [CTX-2120] , MC3R selectivity (relative to MC4R) reported as 173
